# TARGET: plasmin (Homo sapiens (Human), UniProt P00747)
# Sequence (P00747 581-810): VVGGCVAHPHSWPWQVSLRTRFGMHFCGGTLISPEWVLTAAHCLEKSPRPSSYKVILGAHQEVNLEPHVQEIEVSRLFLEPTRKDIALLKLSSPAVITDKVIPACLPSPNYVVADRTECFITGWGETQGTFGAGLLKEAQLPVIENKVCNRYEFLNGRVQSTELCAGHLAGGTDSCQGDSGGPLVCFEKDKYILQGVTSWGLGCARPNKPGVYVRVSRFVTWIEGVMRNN
# Sequence (P00747 97-580 partner): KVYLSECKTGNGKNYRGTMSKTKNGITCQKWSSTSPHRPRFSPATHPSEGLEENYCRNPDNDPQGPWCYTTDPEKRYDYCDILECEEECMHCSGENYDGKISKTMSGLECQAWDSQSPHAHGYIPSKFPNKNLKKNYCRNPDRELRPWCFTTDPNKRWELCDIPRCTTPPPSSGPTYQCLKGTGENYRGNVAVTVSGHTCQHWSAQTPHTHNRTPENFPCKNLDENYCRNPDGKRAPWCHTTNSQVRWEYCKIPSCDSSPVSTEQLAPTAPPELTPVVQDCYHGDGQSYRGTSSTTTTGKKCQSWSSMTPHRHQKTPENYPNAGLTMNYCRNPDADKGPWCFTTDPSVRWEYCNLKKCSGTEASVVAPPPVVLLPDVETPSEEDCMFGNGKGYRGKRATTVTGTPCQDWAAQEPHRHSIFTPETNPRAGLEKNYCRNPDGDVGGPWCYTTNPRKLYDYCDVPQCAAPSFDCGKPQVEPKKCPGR
# RUN_DESCRIPTION: Determination of inhibition constants for human plasmin (chromogenic substrate)
# Format: biochemical
# MEASUREMENT_CONDITIONS: 25° C., Chromozym PL substrate; read-out: h plasmin Ki
Measured Ki, listed per entry for reference.
RECORDED_ENDPOINT: Ki

CC(=O)N1CCC(CC[C@@H](NS(=O)(=O)Cc2ccccc2)C(=O)N[C@@H](CCC2CCNCC2)C(=O)NCc2ccc(C(=N)N)cc2)CC1 | 1.8 nM
N=C(N)c1ccc(CNC(=O)[C@H](CCC2CCNCC2)NC(=O)[C@@H](CCCc2ccccc2)NS(=O)(=O)Cc2ccccc2)cc1 | 0.25 nM
N=C(N)c1ccc(CNC(=O)[C@H](CCC2CCNCC2)NC(=O)[C@@H](CCC2CCN(C(=O)C3CC3)CC2)NS(=O)(=O)Cc2ccccc2)cc1 | 0.6 nM
N=C(N)c1ccc(CNC(=O)[C@H](CCC2CCNCC2)NC(=O)[C@@H](CCc2ccncc2)NS(=O)(=O)Cc2ccccc2)cc1 | 1.5 nM
N=C(N)c1ccc(CNC(=O)[C@H](CCC2CCNCC2)NC(=O)[C@@H](CCCc2cc[n+]([O-])cc2)NS(=O)(=O)Cc2ccccc2)cc1 [drawing 123] | 1 nM
COCC(=O)N1CCC(CC[C@@H](NS(=O)(=O)Cc2ccccc2)C(=O)N[C@@H](CCC2CCNCC2)C(=O)NCc2ccc(C(=N)N)cc2)CC1 | 1.2 nM
CCC(=O)N1CCC(CC[C@@H](NS(=O)(=O)Cc2ccccc2)C(=O)N[C@@H](CCC2CCNCC2)C(=O)NCc2ccc(C(=N)N)cc2)CC1 | 0.8 nM
N=C(N)c1ccc(CNC(=O)[C@H](CCC2CCNCC2)NC(=O)[C@H](NS(=O)(=O)Cc2ccccc2)c2ccccc2)cc1 | 2.2 nM
CCCC(=O)N1CCC(CC[C@@H](NS(=O)(=O)Cc2ccccc2)C(=O)N[C@@H](CCC2CCNCC2)C(=O)NCc2ccc(C(=N)N)cc2)CC1 | 0.6 nM
